B1: TPR t1 (parent)
chain: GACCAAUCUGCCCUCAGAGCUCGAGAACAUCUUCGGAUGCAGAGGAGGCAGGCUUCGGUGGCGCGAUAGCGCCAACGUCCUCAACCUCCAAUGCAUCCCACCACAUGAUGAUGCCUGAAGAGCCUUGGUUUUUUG

# Variants of: B1
# method summary: polymerase ribozyme fitness, log enrichment relative to wild type (log ratio); higher = more active; in vitro selection for triplet polymerase activity
Each entry below carries its reported polymerase ribozyme fitness (log ratio).

sequence change	polymerase ribozyme fitness (log ratio)
C72G C101U	-0.7
G19U G71A A118G	-6.34
C28U G52A C73U	-2.19
G42A G60U G69U	-6.05
C89U G122A	-0.697
G52U C80G	-4.76
A27G A46U C102U C115A G120A	-7.01
A43C U129G	-3.27
G45A C72U A74U	-1.2
A16G U55A C102A A121U	-0.698
G110A U130A	-0.862
C40A C89G C94A	-4.16
U78C C88U A121C	1.67
C12G C72G C104U C123U C124A	2.06
A5C C56G C98A A121C	-3.33
G23U G51U C56A G63C G69C C114A A121U	-5.92
G61U C94U U112A C115G	-0.199
C20A A50U U126C	-4.92
C22A A26U	-4.2
C3A C85U	-2.76
A16U A27U G61A	-4.42
A5C U7C G63U C94G G113C A118C	-6.82
C73U C86G C115G U129A	-5.03
